- Tested on: SK-MEL-5 melanoma
- assay.details: NCI tumour cell line growth inhibition, 48 h
Kindly supply the reported TGI values for the records listed here.
Numbers only, in µM.

compound | TGI, µM
Oc1ccc2ccccc2c1OCc1nnc(CCCCCCCCc2nnc(COc3c(O)ccc4ccccc34)n2Nc2ccccc2)n1Nc1ccccc1 | 2.37

# batch size: 2; output TGI per entry
1. Cc1cc(=O)[nH]c(NNC(C#N)c2ccccc2O)n1 (stereo not given)
2. COc1ccc2nc(C)cc(Sc3nc4ccccc4s3)c2c1

1: 75.9; 2: 13.5

Looking for the measured TGI of Oc1c(Cl)cc2cc1-c1cc(cc(Cl)c1O)CCc1c(cc(Cl)c(O)c1Cl)-c1cc(Cl)c(c(Cl)c1O)/C=C\2 , can you help?
14.9

----------
- Test system: 786-0 renal
- assay.details: NCI tumour cell line growth inhibition, 48 h
readout: TGI

item.smiles | value.measured
O=c1cc(N2CCOCC2)n2c(ccc3ccccc32)n1 | > 100 µM
COc1ccc(N2C(=O)[C@@H](N=[N+]=[N-])[C@@H]2[C@H]2COC(C)(C)O2)cc1 | > 100 µM
Cc1cc(=O)[nH]c(N/N=C/c2ccccc2O)n1 | > 100 µM
CCCCNS(=O)(=O)c1ccc(-c2ccc3c(c2)-c2ccc(S(=O)(=O)NCCCC)cc2S3(=O)=O)cc1 | 27.9 µM

Next:
Looking for the measured TGI of O=c1[nH]n(CCc2ccccc2CCl)c2ccc([N+](=O)[O-])cc12 , can you help?
> 100 µM

----------
- System: OVCAR-8 ovarian
- assay.details: NCI tumour cell line growth inhibition, 48 h
readout: TGI

Completed entries (count: 2):
molecule | TGI
CC1=NN(c2ccccc2)C(=O)C12[C@H](c1ccccc1)C2(C#N)C#N (stereo partly drawn) | 7.27 µM
O=C(O)Cn1c2c(c3c1-c1ccccc1C3=O)C(=O)CCC2 | > 100 µM

Next:
Looking for the measured TGI of CC(C)C1(NC(=O)C2CC3c4cccc5[nH]cc(c45)CC3N(C)C2)OC2(O)C3CCCN3C(=O)C(Cc3ccccc3)N2C1=O (stereo not drawn) , can you help?
> 100 µM

----------
Kindly supply the reported TGI values for the records listed here.
- Tested on: M14 melanoma
- assay.details: NCI tumour cell line growth inhibition, 48 h

Completed entries (count: 3):
compound | value.measured
Clc1ccc(-c2nn3c(COc4cccc(OCc5nnc6sc(-c7ccc(Cl)cc7)nn56)c4)nnc3s2)cc1 | 75.9 µM
Nc1c(C(=O)c2cccc(C(O)CO)c2)cnn1-c1ccc(F)cc1 (stereo unspecified) | > 25 µM
CCc1ccc2oc(=O)ccc2c1 | > 100 µM

# batch size: 2; output TGI per entry
1. CC(C)N(C(=O)C12C3C4C5(C(=O)O)C(C1C35I)C42C(=O)O)C(C)C (stereo unspecified)
2. O=C1OC(=O)C23CSCC12C1C=CC3O1 (stereo unspecified)

1: > 100 µM; 2: > 100 µM

Looking for the measured TGI of COC(=O)CC1(O)C=CC(=O)C=C1 , can you help?
16.6 µM

----------
Kindly supply the reported TGI values for the records listed here.
- Test system: UACC-257 melanoma
- assay.details: NCI tumour cell line growth inhibition, 48 h

Completed entries (count: 3):
compound | TGI
COc1cccc(C(C#N)NNC(=O)c2c(Cl)c(Cl)c(Cl)c(Cl)c2-c2nc3ccc(C(=O)c4ccccc4)cc3[nH]2)c1O (stereo unspecified) | > 100 µM
Cc1cc(=O)[nH]c(NNC(C#N)c2ccccc2O)n1 (stereo unspecified) | > 100 µM
CC(C)=Cc1cc(C)c2ccc(C)c3c2c1C(C)=C(O)C3=O | > 100 µM

# batch size: 6; output TGI per entry
1. CN1CCN=C1c1nnn(-c2ccc([N+](=O)[O-])cc2)c1-c1ccccc1
2. NC1=NC(SCc2ccccc2CCl)c2ncn(Cc3ccccc3CCl)c2N1 (stereo unspecified)
3. CSc1nnc(SCc2nn3c(=O)cc(C)nc3s2)s1
4. O=C(O)CSC1=NNC2(C(=O)N1)c1ccccc1-c1ccccc12
5. CC(C)OP(=O)(OC(C)C)C(C(C)C)N(C)C(N)=NC#N (stereo unspecified)
6. O=C1N2CCC[C@H]2CS1(=O)=O

1. > 100 µM
2. 3.07 µM
3. > 100 µM
4. > 10 µM
5. > 100 µM
6. 37.4 µM

# batch size: 2; output TGI per entry
1. C=CCC12CC(=O)CCC1c1ccc(OC)cc1C2=O (stereo unspecified)
2. CC(c1ccccc1)n1cncc1C(=O)NN1CCN(C)CC1 (stereo unspecified)

1. > 100 µM
2. > 10 µM
